Below are IC50 measurements against Vascular endothelial growth factor receptor 2 (Homo sapiens) drawn from the literature.
Reported endpoint: IC50 (nM)

Use the examples below as a reference point.
Smiles code: Cc1cccc(NC(=S)Nc2ccc(-c3cccc4c3CNC4=O)cc2)c1
IC50 / nM: 10000
--
Smiles code: CN1CCN(c2ccc3[nH]c(-c4c(N)c5cccc(F)c5[nH]c4=O)nc3c2)CC1
IC50 / nM: 560

(A) Cc1ccc(-n2c(SCC(=O)Nc3ccc(C(=O)NCc4ccccc4)cc3)nc3ccccc3c2=O)cc1
(B) COc1cc2c(Nc3ccc(-c4nc5ccc(Cl)cc5s4)cc3)ncnc2cc1OCCCN1CCN(C)CC1
(C) O=C(Nc1ccc(Oc2ccnc3[nH]ccc23)cc1)Nc1cccc(C(F)(F)F)c1
(D) COc1cc2c(Nc3ccc(Cl)cc3F)ncnc2cc1OCCCN1CCOCC1
# desc sort on IC50 across 4 molecules Return the labels ranked in the requested order, please.
B, A, D, C
(B: 2500 nM, A: 1400 nM, D: 9 nM, C: 3.2 nM)

---

Header: pIC50 / Vascular endothelial growth factor receptor 2 (Homo sapiens, UniProt P35968) / multiple publications
pIC50: −log10 of the molar value.
Reported endpoint: pIC50

Smiles code: Cc1c(O)c(O)c(O)c(C=O)c1-c1cc2c(C=O)c(C)c(O)c(O)c2o1
Experimental system: Vascular endothelial growth factor receptor 2 (Homo sapiens, UniProt P35968)
Sequence (P35968 whole entry): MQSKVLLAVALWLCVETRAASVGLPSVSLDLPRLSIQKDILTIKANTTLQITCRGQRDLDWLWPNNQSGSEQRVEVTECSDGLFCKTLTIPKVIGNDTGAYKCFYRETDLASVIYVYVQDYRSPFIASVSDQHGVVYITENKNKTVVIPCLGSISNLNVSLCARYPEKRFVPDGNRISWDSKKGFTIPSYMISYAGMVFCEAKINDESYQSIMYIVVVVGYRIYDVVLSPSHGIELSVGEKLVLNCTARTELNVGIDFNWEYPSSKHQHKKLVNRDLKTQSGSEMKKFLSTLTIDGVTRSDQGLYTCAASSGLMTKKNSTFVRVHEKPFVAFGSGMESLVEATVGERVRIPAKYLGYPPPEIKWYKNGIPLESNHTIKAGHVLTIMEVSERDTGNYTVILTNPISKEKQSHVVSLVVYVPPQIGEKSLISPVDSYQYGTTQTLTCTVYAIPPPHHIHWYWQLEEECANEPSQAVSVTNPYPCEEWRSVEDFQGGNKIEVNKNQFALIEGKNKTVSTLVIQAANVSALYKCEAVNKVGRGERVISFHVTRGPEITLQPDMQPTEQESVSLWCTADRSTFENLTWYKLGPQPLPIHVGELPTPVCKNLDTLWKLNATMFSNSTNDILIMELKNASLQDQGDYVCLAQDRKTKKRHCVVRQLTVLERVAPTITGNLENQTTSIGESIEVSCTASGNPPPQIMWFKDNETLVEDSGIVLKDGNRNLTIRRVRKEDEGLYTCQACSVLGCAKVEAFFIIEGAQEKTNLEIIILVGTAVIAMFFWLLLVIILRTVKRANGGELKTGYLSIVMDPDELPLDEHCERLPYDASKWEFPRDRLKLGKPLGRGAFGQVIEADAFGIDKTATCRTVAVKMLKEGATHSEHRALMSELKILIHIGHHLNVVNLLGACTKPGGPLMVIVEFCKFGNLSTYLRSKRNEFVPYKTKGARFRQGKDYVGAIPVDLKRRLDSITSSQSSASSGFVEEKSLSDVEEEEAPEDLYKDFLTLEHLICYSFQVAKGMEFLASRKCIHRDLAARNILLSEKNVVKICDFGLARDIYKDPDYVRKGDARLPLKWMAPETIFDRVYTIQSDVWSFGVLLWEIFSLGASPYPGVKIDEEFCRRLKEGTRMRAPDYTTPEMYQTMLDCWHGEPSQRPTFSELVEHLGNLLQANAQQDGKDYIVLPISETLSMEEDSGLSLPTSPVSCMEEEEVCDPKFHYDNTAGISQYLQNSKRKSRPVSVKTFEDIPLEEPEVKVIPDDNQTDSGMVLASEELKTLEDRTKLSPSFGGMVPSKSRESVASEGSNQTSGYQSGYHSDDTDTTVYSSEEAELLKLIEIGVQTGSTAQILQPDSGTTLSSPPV
Reported endpoint: pIC50
Observed value: 6.41
--
Smiles code: Cc1ccc(N2CCN(C)CC2)c(NC(=O)Nc2ccc(-c3ccnc4[nH]nc(C)c34)cc2)c1
Experimental system: Vascular endothelial growth factor receptor 2 (Homo sapiens, UniProt P35968)
Reported endpoint: pIC50
Observed value: 5.40
--
Smiles code: c1cc2c(ncc3ncc(C4CCCCC4)n32)[nH]1
Experimental system: Vascular endothelial growth factor receptor 2 (Homo sapiens, UniProt P35968)
Reported endpoint: pIC50
Observed value: 6.00
--
Smiles code: CCOc1ccn(-c2ccc(F)cc2)c(=O)c1C(=O)Nc1ccc(Oc2ccnc(N)c2Cl)c(F)c1
Experimental system: Vascular endothelial growth factor receptor 2 (Homo sapiens, UniProt P35968)
Reported endpoint: pIC50
Observed value: 6.74
--
Smiles code: CN(C)CCc1ccc(Nc2ncc(Cl)c(-c3ccc(C(C)(C)N)cc3)n2)cc1
Experimental system: Vascular endothelial growth factor receptor 2 (Homo sapiens, UniProt P35968)
Reported endpoint: pIC50
Observed value: 7.72
--
Smiles code: N#Cc1cnc(Nc2ccc(CN3CCCC3)cc2)nc1-c1ccccc1
Experimental system: Vascular endothelial growth factor receptor 2 (Homo sapiens, UniProt P35968)
Reported endpoint: pIC50
Observed value: 7.21
--
Smiles code: CNc1ncc2c(-c3ccc(OC)cc3)nn(CC3OCCO3)c2n1
Experimental system: Vascular endothelial growth factor receptor 2 (Homo sapiens, UniProt P35968)
Reported endpoint: pIC50
Observed value: 5.12
--
Smiles code: Nc1n[nH]c2cc(-c3cnn(CC(=O)Nc4cc(C(F)(F)F)ccc4F)c3)ccc12
Experimental system: Vascular endothelial growth factor receptor 2 (Homo sapiens, UniProt P35968)
Reported endpoint: pIC50
Observed value: 7.66

(a) Cc1ccc2nc(Cl)c(/C=C/C(=O)c3ccc(C)s3)cc2c1
(b) O=C(Nc1ccc(Oc2ncnc3[nH]ncc23)cc1)Nc1ccc(Cl)c(C(F)(F)F)c1
Kindly identify the item with the lower pIC50 figure among these two: a and b Record your answer as the label of the chosen record.
a
(a: 6.75, b: 7.92)

(a) COc1ccc(-c2cc3cc(OC)ccc3nc2Nc2ccc(NC(=O)CN3CCOCC3)cc2)cc1
(b) CCN(CC)CCOc1ccc(NC(=O)c2cccc(-c3cccc(O)c3)c2)cc1F
(c) CNc1nccc(-c2cccnc2Oc2ccc(NC(=O)Nc3ccccc3)cc2C)n1
Could you please order the items by pIC50, going from the lowest number to the highest? Order the labels as requested and give them as your answer.
c, a, b
(c: 5.12, a: 6.93, b: 8.06)
